From: patent US20230295162A1

# Lookup of reported IC50 keyed by entry
- System: H2228 lung cancer cell line
- Test details: High-throughput screening, CellTiter-Glo cell viability assay at 100 nM
- Format: cell-based, human
- Applied conditions: Homo sapiens, NCI-H2228, HTS, compounds at 100 nM, 72 h, read-out: cytotoxicity expressed in IC50, H2228 (results of High throughput screening)

>  <Molecule>
[N-]=[N+]=Nc1cccc(CN2C(=O)C3=C(CCN(Cc4ccccc4)C3)N3CCN=C23)c1

>  <IC50>
> 100 nM

$$$$
>  <Molecule>
O=C1C2=C(CCN(Cc3ccc(F)c(F)c3F)C2)N2CCN=C2N1Cc1ccc(F)cc1

>  <IC50>
> 100 nM

$$$$
>  <Molecule>
Nc1ccc(CN2CCC3=C(C2)C(=O)N(Cc2ccc(N)cc2)C2=NCCN23)cc1

>  <IC50>
> 100 nM

$$$$
>  <Molecule>
Cc1ccccc1CN1C(=O)C2=C(CCN(Cc3ccc(F)c(F)c3)C2)N2CCN=C12

>  <IC50>
> 100 nM

$$$$
>  <Molecule>
[N-]=[N+]=Nc1cccc(CN2CCC3=C(C2)C(=O)N(Cc2ccc(C(F)(F)F)c(F)c2)C2=NCCN23)c1

>  <IC50>
< 100 nM

$$$$
>  <Molecule>
Cc1ccccc1CN1C(=O)C2=C(CCN(Cc3cccc(N=[N+]=[N-])c3)C2)N2CCN=C12

>  <IC50>
> 100 nM

$$$$
>  <Molecule>
Nc1cccc(CN2C(=O)C3=C(CCN(Cc4ccccc4)C3)N3CCN=C23)c1

>  <IC50>
> 100 nM

$$$$
>  <Molecule>
Cc1ccccc1CN1C(=O)C2=C(CCN(CC3CNC3)C2)N2CCN=C12

>  <IC50>
> 100 nM

$$$$
>  <Molecule>
O=C1C2=C(CCN(Cc3ccccc3F)C2)N2CCN=C2N1Cc1ccc(C(F)(F)F)c(F)c1

>  <IC50>
> 100 nM

$$$$
>  <Molecule>
Cc1ccccc1CN1C(=O)C2=C(CCN(CC3CCCN3)C2)N2CCN=C12 (centres unmarked)

>  <IC50>
> 100 nM

$$$$
>  <Molecule>
COc1cc(CN2C(=O)C3=C(CCN(Cc4cccc(F)c4)C3)N3CCN=C23)cc(OC)c1OC

>  <IC50>
> 100 nM

$$$$
>  <Molecule>
Nc1ccc(CN2CCC3=C(C2)C(=O)N(Cc2ccc(F)cc2)C2=NCCN23)cc1

>  <IC50>
> 100 nM

$$$$
>  <Molecule>
O=C1C2=C(CCN(Cc3ccc(F)cc3)C2)N2CCN=C2N1Cc1ccc(C(F)(F)F)c(F)c1

>  <IC50>
> 100 nM

$$$$
>  <Molecule>
NCc1cccc(CN2CCC3=C(C2)C(=O)N(Cc2ccc(I)cc2)C2=NCCN23)c1

>  <IC50>
> 100 nM

$$$$
>  <Molecule>
O=C1C2=C(CCN(Cc3ccccc3)C2)N2CCN=C2N1Cc1ccc(C(F)(F)F)cc1 [I/1, reference compound]

>  <IC50>
> 100 nM

$$$$
>  <Molecule>
Nc1ccc(CN2CCC3=C(C2)C(=O)N(Cc2ccc(C(F)(F)F)c(F)c2)C2=NCCN23)cc1

>  <IC50>
> 100 nM

$$$$
>  <Molecule>
NCc1cccc(CN2C(=O)C3=C(CCN(Cc4ccc(C(F)(F)F)cc4)C3)N3CCN=C23)c1

>  <IC50>
> 100 nM

$$$$
